Test system: Plasmodium falciparum
run-description: GSK_TCMDC: Inhibition of Plasmodium falciparum Dd2 in whole red blood cells, using parasite LDH activity as an index of growth. Test compounds present at 2uM
Type: functional
Decision: Inhibition beneath 60% gives true (1); Inhibition meeting or exceeding 60% gives false (0).

A selection of reference data follows.
{"molecule": "CCOC(=O)N1CCN(CCCCCNc2cc(C)nc(NC(=N)Nc3ccc(Cl)cc3)n2)CC1.Cl", "group-label": "true (1)"}
{"molecule": "COc1cccc(-c2nn(C)c3sc(C(=O)NCCN4CCN(c5ccccc5F)CC4)cc23)c1", "group-label": "true (1)"}
{"molecule": "CC(C)N(Cc1cnc(N)c(C#N)n1)c1ccc(Cl)c(Cl)c1", "group-label": "false (0)"}
{"molecule": "CN1CCC(c2c[nH]c3ccc(NC(=O)Nc4ccc(-c5ccncc5)c(Cl)c4Cl)cc23)CC1", "group-label": "true (1)"}
{"molecule": "COc1ccc(OC)c(Cc2c(C)nc3nc(N)nc(N)c3c2C)c1.Cl", "group-label": "true (1)"}

Prompt: Does the reported Inhibition of the following molecule sit strictly below 60%? COc1ccc(N2CCN(CCCCNC(=O)c3ccc(NC(=O)c4ccc(OC(F)(F)F)cc4)cc3)CC2)c(OC)c1
Completion: false (0)

Prompt: Below 60% on Inhibition? Entry COc1ccc2c(N/N=C/c3cccc([N+](=O)[O-])c3)ccnc2c1
Completion: false (0)

Prompt: is_below(Inhibition, 60%) for Br.Oc1ccc(CCNCCCCCCNCCCc2ccc(Cl)cc2)cc1O ?
Completion: true (1)

Prompt: Please check: Inhibition for c1ccc(CN2CCCN(c3ccc4c(c3)CCN(Cc3ccc(-c5ncc[nH]5)cc3)CC4)CC2)cc1 , strictly under 60% or not?
Completion: false (0)

Prompt: Is 60% strictly greater than the molecule's reported Inhibition? molecule: CSCCC(C(=O)O)N1C(=O)c2ccccc2C1=O (centres undefined)
Completion: true (1)

----------
System: Plasmodium falciparum
run-description: GSK_TCMDC: Inhibition of Plasmodium falciparum 3D7 in whole red blood cells, using parasite LDH activity as an index of growth. Test compounds present at 2uM
Type: functional
Could you please report measured Inhibition for the items listed next?
Give bare numbers, in %.

{"smiles-structure": "Cc1c(Oc2ccc(-n3ccnc3)cc2)ncnc1N1CCC2(CC1)CNCc1ccccc12.O=C(O)C(F)(F)F", "Inhibition / %": 95}

Your task in this section: give Inhibition for each listed record.
1. CCOC(=O)c1cnc2cc(N3CCCC3)c(Cl)cc2c1OCC
2. Cc1ccc(CNC(=O)[C@H](Cc2ccccc2)Nc2cc(C)nc(NCC3CCCCC3)n2)cc1.O=C(O)C(F)(F)F
3. O=C(/C=C/c1ccc(Cl)c(Cl)c1)NCCCCCCN1CCN(C(=O)Nc2ccc(F)c(Cl)c2)CC1
4. COc1cc(OC)c(OC)cc1CN1CCC2(CC1)CN(Cc1ccc(Cl)c(Cl)c1)C(=O)O2

Completion:
1: 97; 2: 100; 3: 86; 4: 90

List Inhibition for every entry below, keeping the order given.
1. c1ccc(CNc2cc(-c3ccccn3)nc(-c3ccccn3)n2)cc1
2. Cl.O=C1CSc2ccc(CNC3CCN(CCc4c(Cl)cnc5ccc(F)cc45)CC3)nc2N1

Completion:
84
98

Each of the following entries comes with a recorded value; kindly state Inhibition for each.
1. C=CCn1c(SCC(=O)Nc2cc(Cl)ccc2Cl)nc2sc(C)cc2c1=O
2. CCOC(=O)CNC(=O)N(CCN(Cc1ccccc1)C(=O)NCC(=O)OCC)Cc1ccccc1

Completion:
1. 97
2. 98

----------
Test system: HepG2
run-description: GSK_TCMDC: Percent inhibition of human HepG2 cell line. Test compounds present at 10uM.
Format: functional
Threshold 20%: Inhibition strictly smaller gives Yes, otherwise No.

{"compound": "CCNC(=O)Nc1ccc(-c2cnc(N)c(-c3nc4ccc(OC)cc4[nH]3)c2)cc1", "group-label": "No"}
{"compound": "COc1ccc(Cn2c(SCc3ccc(C)cc3)nc3cc(OC)c(OC)cc3c2=N)cc1Cl", "group-label": "No"}
{"compound": "O=C(O)C(F)(F)F.c1ccc(CCNCc2ccc(-c3ccc(CNCc4ccc5c(c4)OCO5)cc3)nc2)cc1", "group-label": "No"}
{"compound": "CCCCCN1CCCC(CNS(=O)(=O)c2ccc(C(=O)Nc3ccc(C(F)(F)F)cc3)cc2)C1.O=C(O)C(F)(F)F (centres undefined)", "group-label": "No"}
{"compound": "CC(=O)Nc1ccc(Nc2cc(C)nc(Nc3ccc(NC(C)=O)cc3)n2)cc1", "group-label": "Yes"}

Prompt: I wonder whether CCc1nc(N)nc(N)c1-c1ccc(F)cc1 has Inhibition below 20%. Can you tell?
Completion: No

Prompt: Say whether its Inhibition is strictly beneath 20%. Entry: O=C(/C=C/c1ccccc1)N1CCOC(CCN2CCC(c3ccccc3)CC2)(c2ccc(Cl)c(Cl)c2)C1 (centres undefined)
Completion: Yes

Prompt: Lab note: Inhibition threshold 20%. Does this compound come in strictly under it? Cl.O=c1cc(NCCCNCc2cc3c(Cl)cc(Cl)cc3[nH]2)[nH]c2ccccc12
Completion: Yes

----------
Test system: Plasmodium falciparum
run-description: GSK_TCMDC: Inhibition of Plasmodium falciparum Dd2 in whole red blood cells, using parasite LDH activity as an index of growth. Test compounds present at 2uM
Type: functional
What Inhibition was measured for each of the following?
Numbers only, in %.

List Inhibition for every entry below, keeping the order given.
1. CCN(CCCN1CCCCC1)c1cc(C)nc(Nc2cc(C(F)(F)F)ccc2C)n1.O=C(O)C(F)(F)F
2. Oc1cc(Nc2ccnc3cc(-c4cccc(CN5CCOCC5)c4)ccc23)c(F)cc1Cl

Completion:
[41, 89]

Record Inhibition for all entries; do not skip any.
1. Cc1c2c(nn1-c1ccccc1)C(c1ccccc1)N(c1ccccc1)C2=O (centres undefined)
2. Br.CCOc1ccc(OCCCON2C(=N)N=C(N)NC2(C)C)cc1

Completion:
1: 96; 2: 94

For every listed record, write down its Inhibition.
1. COc1cccc(CCc2ccc(O)c3c2C[C@H]2C[C@H]4[C@H](N(C)C)C(O)=C(C(N)=O)C(=O)[C@@]4(O)C(O)=C2C3=O)c1.Cl
2. c1ccc2[nH]c(CN(Cc3nc4ccccc4[nH]3)Cc3nc4ccccc4[nH]3)nc2c1
3. Cc1cc(Cl)c(S(=O)(=O)NC2CCCC2)cc1OCC(=O)NC1CCCCC1
4. O=C(Nc1ccc(-c2nc3ccccc3[nH]2)cc1)c1cnc(Cl)c(Cl)c1

Completion:
1: 67; 2: 86; 3: 91; 4: 95

Prompt: Read the entry O=C(/C=C/c1ccc(Cl)c(Cl)c1)NCCCCCCN1CCCN(C(=O)Nc2ccc(C(F)(F)F)cc2)CC1 and write its reported Inhibition.
Completion: 25

----------
I'd appreciate it if you could supply Inhibition values for the items below.
Test system: Plasmodium falciparum
run-description: GSK_TCMDC: Inhibition of Plasmodium falciparum 3D7 in whole red blood cells, using parasite LDH activity as an index of growth. Test compounds present at 2uM
Assay type: functional
Numbers only, in %.

Guide cases for Inhibition, answers given:
{"compound": "Cc1[nH]c(CNCCCNc2cc(=O)c3ccccc3[nH]2)c(Br)c1Br", "Inhibition / %": 91}
{"compound": "O=C(O)C(F)(F)F.c1cnc2ccc(NCc3ccc(-c4ccc(CNC5CCCC5)cc4)cc3)cc2c1", "Inhibition / %": 97}
{"compound": "O=C(Nc1cccc(CN2CCCN(Cc3ccc(O)cc3)CC2)c1)c1ccc(Br)cc1.O=C(O)C(F)(F)F", "Inhibition / %": 94}
{"compound": "CCn1c(-c2nc(-c3ccc4c(c3)OCO4)cnc2N)nc2cnccc21", "Inhibition / %": 100}
{"compound": "O=C(NCc1ccc(C(=O)NCc2cccc3ccccc23)cc1)c1ccc(O)c(-c2ccc(Cl)c(Cl)c2)c1", "Inhibition / %": 100}

Parameters: items (list). Returns: Inhibition for each item.
1. CCNC1=NC2=C(CC(C(C)(C)C)CC2)C2(CCC(C(C)(C)C)CC2)S1.Cl (stereo not drawn)
2. Cc1cc(N(CCCN(C)C)Cc2cc(F)cc(F)c2)nc(Nc2ccc(Cl)cc2)n1
3. Fc1cccc(Nc2nc(NCCc3ccc(Cl)cc3)nc(Nc3cccc(F)c3)n2)c1
4. CC(C)(C)NCCN(Cc1ccc(-c2ccc(C(F)(F)F)cc2)cc1)C(=O)Cn1c(SCc2ccc(F)cc2)nc(=O)c2c1CCC2.O=C(O)C(O)C(O)C(=O)O
5. Cn1cc(C2CCN(CCCCCNC(=O)/C=C/c3ccc(Cl)c(Cl)c3)CC2)c2cc(O)ccc21
6. C[C@@H](NC(=O)NC(CCN1CCC2(CC1)CN(S(C)(=O)=O)c1ccccc12)c1ccc(Cl)c(Cl)c1)c1ccccc1 (stereo partly drawn)
7. Cc1cc(Cl)ccc1NC(=O)Nc1ccc2nccc(N3CCN(C)CC3)c2c1

Completion:
1. 99
2. 99
3. 93
4. 97
5. 94
6. 92
7. 100
